Data credit: the supplement of paper PMC10567573

B1: PKD2L1 (parent)
chain: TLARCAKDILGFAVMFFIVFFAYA

Variants of: B1
Test: protein stability index of a GFP-peptide fusion (GPS, HEK-293T) (PSI 1-6); higher = more stable;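 further: lentivirally expressed fusions sorted by FACS into six bins by GFP to DsRed ratio, PSI derived from sequencing read proportions per bin multiplied by bin number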
Settings: c terminus: a fixed tail appended
Recorded Endpoint: protein stability index
Give the figure by itself; no unit, no explanation.

Look over these answered cases.
> print(dat)
   mutation.spec  value
1           M15V   1.88
2            A3P   2.64
3            K7T   2.83
4           M15W    2.5
5           V14M   1.61

If you can, please state the reported protein stability index value of A22Y .
2.58

// lookup protein stability index for A13Q
2.25

Can you share its protein stability index? I mean this variant: I9G
2.66

Look up protein stability index: D8W
2.88

Requested read-out: protein stability index. Entry: F12V
2.42

Please report the recorded protein stability index for K7Y .
3.79

Any idea what protein stability index was measured for F12L ?
3.16

What value of protein stability index has been recorded for this entry: M15G
2.48

I would be grateful if you could share the reported protein stability index for L2E .
2.8
